Test system: PC-3
Test protocol: Growth inhibition of PC3 cells
Test conditions: Homo sapiens
pIC50: −log10 of the molar value.
Endpoint label: pIC50

[[record]]
molecule_smiles = "CC(=O)Nc1cccc(Nc2nc(Nc3cccc(C(=O)N4CCCC4)c3)n3ncc(C#N)c3n2)c1"
endpoint_value = 6.11

[[record]]
molecule_smiles = "CCOc1cccc(Nc2nc(Nc3cccc(NC(C)=O)c3)nc3c(C#N)cnn23)c1"
endpoint_value = 5.92

[[record]]
molecule_smiles = "CC(=O)Nc1cccc(Nc2nc(Nc3ccc(CN4CCNCC4)cc3)n3ncc(C#N)c3n2)c1"
endpoint_value = 5.85

[[record]]
molecule_smiles = "CCN(CC)C(=O)c1cccc(Nc2nc(Nc3cccc(NC(C)=O)c3)nc3c(C#N)cnn23)c1"
endpoint_value = 6.21

[[record]]
molecule_smiles = "CC(=O)Nc1cccc(Nc2nc(Nc3cccc(OC(F)F)c3)n3ncc(C#N)c3n2)c1"
endpoint_value = 5.77

